Values compiled from PubChem BioAssay AID1159580.

assay: chemical genetic growth profiling, strain panel (AID 1159580);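 also: tested at 20 µM; growth read once vehicle control cultures reached saturation at 30 °C; 1 = growth at the plate median or of vehicle wells; lower values mean less growth of the strain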; details: S. cerevisiae deletion strains, growth OD, locus YLL026W, stronger effect = lower value
About 2,000 (36%) of roughly 5,500 compounds were called active. Not shown: some 18% with an inconclusive outcome. The list shows a part of the results.
Threshold 1: normalized growth strictly smaller gives True, otherwise False.

>  <compound>
C[C@@H]1OC(O[C@H]2C(O[C@H]3CC[C@@]4(C)C(CC[C@]5(C)C4CC=C4C6CC(C)(C)CC[C@]6(C(=O)O)CC[C@]45C)[C@]3(C)CO)OC[C@H](O)[C@@H]2O)[C@H](O)[C@H](O)[C@H]1O (stereo partly drawn)

>  <assigned class>
True

$$$$
>  <compound>
CC(C)=CCCC1(C)C=Cc2c(O)c3c(c(CC=C(C)C)c2O1)OC12C(=CC4CC1C(C)(C)OC2(C/C=C(/C)C(=O)O)C4=O)C3=O (stereo not drawn)

>  <assigned class>
True

$$$$
>  <compound>
NNC(=O)c1ccncc1

>  <assigned class>
False

$$$$
>  <compound>
Cc1cc(O)cc(C)c1Cl

>  <assigned class>
True

$$$$

Now consider a different compound.
Is normalized growth strictly under 1 for the entry CC1(C)CC(O)C2(C)CCC3(C)C(=CCC4C5(C)CCC(O)C(C)(CO)C5CCC43C)C2C1 (stereo not drawn) ?
False

* * *

assay: chemical genetic growth profiling, strain panel (AID 1159580); details: S. cerevisiae deletion strains, growth OD, locus YDR334W, strain swr1, stronger effect = lower value
The campaign covered roughly 5,500 compounds. About 2,000 (36%) were called active. About 18% were inconclusive and are not listed. This is one part of the list.
Threshold 1: normalized growth strictly smaller gives T, otherwise F.

Before answering, review these 2 worked examples.
>  <molecule>
CC1(C)CC[C@]2(C(=O)O)CC[C@]3(C)C(=CCC4[C@@]5(C)CC[C@H](O)[C@@](C)(CO)C5CC[C@]43C)C2C1 (some centres not stated)

>  <assigned class>
F

$$$$
>  <molecule>
COc1c(-c2coc3cc4c(cc3c2=O)CC(O)C(C)(C)O4)ccc2c1C=CC(C)(C)O2 (configuration not stated)

>  <assigned class>
T

$$$$

Is normalized growth strictly under 1 for the entry CO[C@@]12[C@@H]3NC3CN1C1=C(C(=O)C(N)=C(C)C1=O)[C@@H]2COC(N)=O (some centres not stated) ?
T

Is normalized growth strictly under 1 for the entry Cc1cc(O)cc(C)c1Cl ?
T

Is normalized growth strictly under 1 for the entry COc1cccc2c1C(=O)c1c(O)c3c(c(O)c1C2=O)C[C@@](O)(C(=O)CO)C[C@@H]3O[C@H]1C[C@H](N)[C@@H](O)[C@H](C)O1 ?
T

* * *

experiment: chemical genetic growth profiling, strain panel (AID 1159580);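 also: tested at 20 µM; growth read once vehicle control cultures reached saturation at 30 °C; 1 = growth at the plate median or of vehicle wells; lower values mean less growth of the strain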; conditions: S. cerevisiae deletion strains, growth OD, locus YLR113W, strain HOG1, stronger effect = lower value
The campaign covered roughly 5,500 compounds. About 2,000 (36%) were called active. Inconclusive results (about 18%) are left out. Some of the results follow.
Recorded normalized growth values for a group of compounds are listed next.
Keep the answer to the number alone.

A selection of reference data follows.
>  <compound>
O=C(O)CC(O)(CC(=O)O)C(=O)O

>  <outcome measure>
normalized growth

>  <observed result>
1.02

$$$$
>  <compound>
CC(=O)/C=C\[C@@H]1[C@@]2(C)CCCC(C)(C)C2CC[C@@]1(C)O (stereo partly specified)

>  <outcome measure>
normalized growth

>  <observed result>
0.951

$$$$
>  <compound>
OC(CCN1CCCCC1)(c1ccccc1)C1CC2C=CC1C2 (stereo unspecified)

>  <outcome measure>
normalized growth

>  <observed result>
0.987

$$$$
>  <compound>
CN1[C@@H]2CC[C@@H]1CC(O)C2 (stereo partly specified)

>  <outcome measure>
normalized growth

>  <observed result>
0.98

$$$$
>  <compound>
CC(C)CCCC1(C)C=Cc2c(O)c3c(c(CCC(C)C)c2O1)OC12C(CC4CC1C(C)(C)OC2(CCC(C)C(=O)O)C4O)C3=O (stereo unspecified)

>  <outcome measure>
normalized growth

>  <observed result>
0.941

$$$$

Let us examine a further case.
For the compound O=C(O)CCCCCCCC(O)C(O)CCCCCCO (stereo unspecified) , report normalized growth.
0.987

* * *

experiment: chemical genetic growth profiling, strain panel (AID 1159580);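 also: tested at 20 µM; growth read once vehicle control cultures reached saturation at 30 °C; 1 = growth at the plate median or of vehicle wells; lower values mean less growth of the strain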; details: S. cerevisiae deletion strains, growth OD, locus YNL250W, strain rad50, stronger effect = lower value
Hit rate of the full screen: of about 5,500 compounds, about 2,000 (36%) were called active. Not shown: some 18% with an inconclusive outcome. The list shows a part of the results. Where a SMILES comes first, the peptide text is derived from it. The star is where a group is joined. For = O=C*
outcome measure: normalized growth

>  <molecule>
NCCC(=O)N[C@@H](Cc1cnc[nH]1)C(=O)O

>  <observed result>
0.97 (inactive)

$$$$
>  <molecule>
Clc1ccccc1C(c1ccccc1)(c1ccccc1)n1ccnc1

>  <observed result>
0.0869 (active)

$$$$
>  <molecule>
CC1=CCC2C3(C)C1=CC(=O)OC3CC1C(C)(C)CC(O)C(O)C12C (centres undefined)

>  <observed result>
0.962 (inactive)

$$$$
>  <molecule>
COC(=O)C[C@H]1C(C)(C)C(=O)[C@@H]2CC3C4=CC(=O)O[C@@H](c5ccoc5)[C@]4(C)CCC3[C@@]1(C)C2=O (some centres undefined)

>  <observed result>
0.98 (inactive)

$$$$
>  <molecule>
CSCCC(NC=O)C(=O)NC(Cc1ccccc1)C(=O)O (stereo not drawn) (For-Met-Phe-OH; configuration not given here)

>  <observed result>
1.01 (inactive)

$$$$

For the molecule CC(C)=CCCC1(C)C=Cc2c(O)c3c(c(CC=C(C)C)c2O1)OC12C(CC4CC1C(C)(C)OC2(C/C=C(/C)C(=O)O)C4O)C3=O (centres undefined) , report normalized growth.
0.993 (inactive)

For the molecule O=c1oc2cc(O)ccc2s1 , report normalized growth.
0.941 (inactive)

For the molecule Nc1ccc(S(=O)(=O)c2ccc(N)cc2)cc1 , report normalized growth.
0.985 (inactive)

For the molecule Cc1ccc(S(=O)(=O)NC(=O)NN2CC3CCCC3C2)cc1 (centres undefined) , report normalized growth.
1.03 (inactive)

For the molecule CC1(C)CC[C@]2(C(=O)O)CC[C@]3(C)C(=CCC4[C@@]5(C)CC[C@@H](O)C(C)(C)C5CC[C@]43C)C2C1 (some centres undefined) , report normalized growth.
1.04 (inactive)

For the molecule COc1cccc(OC)c1OCCNCC1COc2ccccc2O1 (centres undefined) , report normalized growth.
1.01 (inactive)

For the molecule CCCOc1ccccc1-c1nc2n[nH]nc2c(=O)[nH]1 , report normalized growth.
1 (inactive)

* * *

assay: chemical genetic growth profiling, strain panel (AID 1159580);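 also: tested at 20 µM; growth read once vehicle control cultures reached saturation at 30 °C; 1 = growth at the plate median or of vehicle wells; lower values mean less growth of the strain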; settings: S. cerevisiae deletion strains, growth OD, locus YPR111W, strain DBF20
Screen size: about 5,500 compounds; about 2,000 (36%) were called active. Roughly 18% stayed inconclusive and do not appear here. Cut-off read from the data, not from the text of the source: active = normalized growth mostly below about 0.91 (no sharp cut-off); inconclusive = no clear call, values can overlap the other calls; inactive = mostly above about 0.92. The list shows a part of the results.
Answer with one of the outcomes given here: 1 for active, 0 for inactive

Tell me the assay call for O=[N+]([O-])c1ccc(S(=O)(=O)c2ccccc2)nc1S(=O)(=O)c1ccccc1 please.
0

Tell me the assay call for O=C(c1cccs1)N(Cc1cccnc1)Cc1ccc(Cl)cc1Cl please.
0

Tell me the assay call for O=C(CSCc1csc2ccccc12)Nc1ccc(F)c(Cl)c1 please.
0

Tell me the assay call for O=C(NCC(c1ccccc1)c1c[nH]c2ccccc12)c1ccc(C(F)(F)F)cc1 (stereo not given) please.
0

Tell me the assay call for Cc1csc(NC(=O)Nc2ccc(C(F)(F)F)cc2)c1 please.
0

Tell me the assay call for CCOC(=O)c1cc(CC)sc1NC(=O)c1ccc([N+](=O)[O-])o1 please.
0

Tell me the assay call for OC1CCN(c2cc(C(F)(F)F)nc3cc(Cl)cc(Cl)c23)CC1 please.
0

Tell me the assay call for COc1ccc2nc3ccccc3c(N)c2c1 please.
0

Tell me the assay call for O=C(N/N=C\c1cc(Br)ccc1O)c1ccccc1Oc1ccccc1 please.
0

Tell me the assay call for O=C(NCCNc1ncc(Cl)cc1C(F)(F)F)C(F)(F)Sc1ccccc1 please.
0

Tell me the assay call for S=C(Nc1ccc(Cl)cc1)SCc1c(Cl)cccc1Cl please.
0

Tell me the assay call for Nc1ccccc1C(=O)N/N=C\c1cc(Br)ccc1O please.
0

Tell me the assay call for Cc1nc(-c2ccccn2)[nH]c(=O)c1Cc1c(Cl)cccc1Cl please.
0

Tell me the assay call for Cc1oc(C(C)(C)C)cc1-c1cc(N)n(-c2ccc(I)cc2)n1 please.
0

Tell me the assay call for Cc1csc(NC(=O)Nc2ccc(C(F)(F)F)cc2)c1Cl please.
0

Tell me the assay call for CC(C)(C)C(=O)N(Cc1cccnc1)Cc1ccc(Cl)cc1Cl please.
0

Tell me the assay call for N#Cc1c2ccccc2nc2ccccc12 please.
1

Tell me the assay call for Cc1ccc(S(=O)(=O)n2c(Sc3ccc([N+](=O)[O-])cc3[N+](=O)[O-])nc3cc(C)ccc32)cc1 please.
0

Tell me the assay call for Cc1nc(-c2ccccn2)nc(N(C)Cc2ccccc2)c1Cl please.
0

Tell me the assay call for Brc1ccc2[nH]c3c(c2c1)CCC3 please.
0
